Assay read-out Ki; system under study: 5-HT2 receptors (Rattus norvegicus, UniProt P14842).
Sequence (P14842 whole entry): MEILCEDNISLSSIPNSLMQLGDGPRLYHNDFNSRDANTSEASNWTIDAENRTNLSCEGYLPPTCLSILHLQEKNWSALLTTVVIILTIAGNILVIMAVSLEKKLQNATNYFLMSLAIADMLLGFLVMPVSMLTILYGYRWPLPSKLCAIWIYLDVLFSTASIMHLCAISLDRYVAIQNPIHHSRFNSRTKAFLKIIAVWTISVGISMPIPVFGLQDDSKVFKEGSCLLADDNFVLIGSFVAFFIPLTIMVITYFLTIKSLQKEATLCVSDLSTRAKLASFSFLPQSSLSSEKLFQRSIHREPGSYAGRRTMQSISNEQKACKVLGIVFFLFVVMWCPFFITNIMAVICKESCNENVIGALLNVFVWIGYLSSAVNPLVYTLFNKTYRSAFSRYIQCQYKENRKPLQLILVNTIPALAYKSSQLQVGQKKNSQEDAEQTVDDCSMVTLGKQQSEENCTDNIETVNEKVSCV
Counter-ions that a name gives are not always drawn.
TEST READOUT: Ki (nM)

> print(dat)
                                   compound  test.readout  readout.unit  measured.value
1  Fc1ccc(C(OCCN2CCN(c3ccccn3)CC2)c2ccc(F)cc2)cc1 [3:1, dihydrochloride]            Ki            nM              11
2  Fc1ccc(N(CCCN2CCN(c3ccccn3)CC2)c2ccc(F)cc2)cc1 [1:1]            Ki            nM              18
